measured target: Protein kinase C, beta type (Homo sapiens, UniProt P05771)
Sequence (P05771 whole entry): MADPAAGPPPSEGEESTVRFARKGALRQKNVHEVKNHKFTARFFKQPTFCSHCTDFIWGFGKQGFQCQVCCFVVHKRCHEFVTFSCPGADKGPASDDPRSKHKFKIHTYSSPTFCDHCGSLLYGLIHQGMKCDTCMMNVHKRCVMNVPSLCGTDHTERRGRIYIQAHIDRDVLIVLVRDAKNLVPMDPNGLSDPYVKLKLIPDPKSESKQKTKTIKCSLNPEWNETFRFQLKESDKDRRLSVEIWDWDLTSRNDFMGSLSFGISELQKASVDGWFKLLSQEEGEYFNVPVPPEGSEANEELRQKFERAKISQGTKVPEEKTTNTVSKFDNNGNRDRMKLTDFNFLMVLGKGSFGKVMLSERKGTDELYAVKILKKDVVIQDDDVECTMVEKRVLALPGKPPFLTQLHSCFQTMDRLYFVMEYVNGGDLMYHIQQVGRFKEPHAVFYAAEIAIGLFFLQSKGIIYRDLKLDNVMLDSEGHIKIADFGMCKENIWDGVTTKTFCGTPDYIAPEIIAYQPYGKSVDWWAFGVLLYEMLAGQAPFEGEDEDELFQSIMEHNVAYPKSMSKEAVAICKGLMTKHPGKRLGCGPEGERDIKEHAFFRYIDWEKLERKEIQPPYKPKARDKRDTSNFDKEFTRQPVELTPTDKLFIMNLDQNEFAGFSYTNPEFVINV
pIC50: −log10 of the molar value.
reported property: pIC50

Qu. Indicate the recorded pIC50 value for this molecule: COC(=O)C1=CO[C@@H](O[C@@H]2O[C@H](CO)[C@@H](O)[C@H](O)[C@H]2O)[C@@H]2[C@H](C)O[C@@H](O)C[C@H]12 [Morroniside]
Ans. < 5.00

---

measured target: Acetyl-CoA carboxylase 1 (Homo sapiens)
Construct: purchased Proteintech (Shanghai)
procedure details: SPR assay ACC1
Assay type: binding
test conditions: SPR, ACC1 on CM5 chip; read-out: Kd
reported property: pKd
Keep in mind that pKd stands for -log10 of concentration in molar terms.

Qu. Entry COC(=O)C1=CO[C@@H](O[C@@H]2O[C@H](CO)[C@@H](O)[C@H](O)[C@H]2O)[C@@H]2[C@H](C)O[C@@H](O)C[C@H]12 [Morroniside] needs its pKd filled in; supply it.
Ans. 4.87
